Test system: SK-MEL-2 melanoma
Assay: NCI tumour cell line growth inhibition, 48 h; in the data active = GI50 below about 0.43 µM; inactive = the rest
Give one outcome, nothing more. List: 1 = active, -1 = inactive

C(=C\c1nccc2c1[nH]c1ccccc12)/c1ccccc1 = -1
Cc1ccc2c(c1)O/C(=C\c1ccc([N+](=O)[O-])o1)C2=O = -1
COc1ccc(/C=C/C(=O)c2cc3c(N)c(C(=O)Nc4ccccc4C)sc3nc2C)cc1 = 1
Cc1nc2cc(Nc3nc(Nc4ccc(F)cc4)nc(N4CCN(C)CC4)n3)ccc2n1Cc1ccccc1 = -1
COc1cc2cc(Oc3ccc(NC(=O)Nc4ccc(Cl)c(C(F)(F)F)c4)cc3)c(C)nc2cc1OC = -1

Problem: Could you please tell me the result logged for COc1ccc(CC(NC(=O)[C@H](C)NC(=O)CN2CCOCC2)C(=O)N[C@@H](Cc2ccccc2)C(=O)[C@@]2(C)CO2)cc1 (stereo partly specified) in this assay?
Result: 1

Problem: Fill in: this test's call for `CCCCCCC#CC#Cc1cccc(=O)o1` is ___
Result: -1

Problem: GET /call?item= `CCCCCCNc1nc(N2CCOCC2)c2[nH]c(NCCCCCC)nc2n1` returns the recorded outcome of this test.
Result: -1

---

Tested on: PC-3 prostate
Experiment: NCI tumour cell line growth inhibition, 48 h
parameter: TGI

C[C@]12C3CC[C@@]4(CO)C[C@]3(CCC1[C@](C)(C(=O)O)CC[C@@H]2O)CC4=O (stereo partly specified) = > 100 µM
Clc1ccc(C=NC23CC4CC(CC(C4)C2)C3)cc1Cl = > 10 µM
CC1(C)CC(=O)c2c(nc(SSc3nc4c(c(-c5ccc(Br)cc5)c3C#N)C(=O)CC(C)(C)C4)c(C#N)c2-c2ccc(Br)cc2)C1 = > 10 µM
Oc1c(I)cc(-c2nc3ccccc3s2)cc1CN(Cc1ccccn1)Cc1ccccn1 = > 100 µM
C/C(N=Nc1nc2ccccc2[nH]1)=C1/C=CC=CN1O = > 100 µM

Parameters: items (list). Returns: TGI for each item.
1. COC(=O)C1(C2CC/C(C)=C/CC/C(C)=C/CC[C@@]3(C)O[C@@H]3C2)CC1 (stereo partly specified)
2. COc1cc(C2=NN(c3ccc(S(N)(=O)=O)cc3)C(c3ccc(Cl)cc3)C2)cc(OC)c1OC (stereo unspecified)
3. C#C[C@]1(O)CC[C@H]2[C@@H]3CCC4=C/C(=N\OCCN(CC)CC)CC[C@]4(C)[C@H]3CC[C@@]21C
4. Cc1cc(C)n(C(=O)c2nn(-c3ccc(Cl)cc3)cc2O)n1
5. C#Cc1cccc(Oc2ccc(NC(=O)CCl)cc2)c1
6. Cc1nc2ncn3c(c-2c1Cc1ccccc1)NC=C(O)N3
7. Cn1c(=O)cc(NCCc2ccccc2)[nH]c1=O
8. CCOc1ccc2ccc3cccnc3c2n1

Result:
1: > 100 µM; 2: > 100 µM; 3: 16.1 µM; 4: > 100 µM; 5: > 82.5 µM; 6: > 100 µM; 7: > 100 µM; 8: > 100 µM

---

System: HOP-92 NSCLC
Experiment: NCI tumour cell line growth inhibition, 48 h
parameter: log10 of TGI (log10 of the value in µM)
Annotation: log10 of TGI, µM basis.

O=S(=O)(NCCNc1cc(-c2cn(-c3ccccc3)nc2-c2cccc(O)c2)ccn1)c1ccc(Cl)cc1 = 0.92
CCCCCOC(=O)c1cc2cc(CCl)ccc2oc1=O = 0.87
COc1ccc(/C=C(/C)[N+](=O)[O-])cc1 = 0.75
CCCCCCCCCCCC(=O)c1c(O)cccc1O = 1.51
Cc1cccc2c1O/C(=C\c1ccc([N+](=O)[O-])o1)C2=O = 0.47

Required: log10 of TGI, one value per compound below.
1. COc1ccc(C2c3cc4c(cc3OC(O)(CO)C2C(=O)O)OCO4)cc1 (stereo not given) (tested in a mixture with another compound)
2. COC(=O)C[C@H](COCc1ccccc1)NC(=O)C[C@H](COCc1ccccc1)NC(=O)OC(C)(C)C
3. COc1cc2cc(Oc3ccc(NC(=O)Nc4ccc(Cl)c(C(F)(F)F)c4)cc3)c(C)nc2cc1OC
4. C/C1=C/C(=O)O[C@@H]2C[C@@H](CC[C@H](C)/C=C\C=C\CC1)O[C@@](OCCc1ccccc1)([C@@H]1CSC(=O)N1)C2

Result:
[1.62, 1.82, 0.31, -1.18]

Lab note: CNC(=O)OC1C(O[C@H]2C[C@H]3[C@@H]4CC=C5C[C@@H](O)CC[C@]5(C)[C@H]4CC[C@]3(C)[C@H]2[C@H](C)C(=O)CCC(C)C)OCC(O)C1OC1OCC(O)C(O)C1OC(=O)c1ccc(OC)cc1 (stereo not given in full) gave log10 of TGI of 0.49

---

Tested on: SNB-19 CNS
Assay: NCI tumour cell line growth inhibition, 48 h
Answer each item with its documented TGI.

Consider the reported TGI for these compounds:
CCN(CC)CCOc1ccc2c(c1)C(=O)c1cc(OCCN(CC)CC)ccc1-2 = 61.7 µM
NC(=S)N/N=c1\cc(C(=O)Nc2ccc([N+](=O)[O-])cc2[N+](=O)[O-])oc2ccccc12 = > 100 µM
Cc1nc2ncn3c(c-2c1Cc1ccccc1)NC=C(O)N3 = > 100 µM
Nc1cc(-c2ccc(Cl)cc2)nn1-c1nc2ccccc2nc1-c1ccccc1 = > 100 µM
BrC1=CC=C2NCCCCCCN=C3C=CC(Br)=CC=C3NCCCCCCN=C2C=C1 = > 25.5 µM
COc1cc(/C=C2\CN(S(=O)(=O)c3ccccc3)C/C(=C\c3cc(CN4CCCCC4)c(O)c(OC)c3)C2=O)cc(CN2CCCCC2)c1O = 4.58 µM
Cc1ccc(CC(Cc2ccc(C)cc2C(=O)O)C(=O)O)cc1 (centres undefined) = > 100 µM
COc1cc2cc(Oc3ccc(NC(=O)Nc4ccc(Cl)c(C(F)(F)F)c4)cc3)c(C)nc2cc1OC = 5.31 µM

Simply: `O=[N+]([O-])c1ccc(/C=C(/c2ccc([N+](=O)[O-])o2)S(=O)(=O)c2ccccc2)o1` , SNB-19 CNS, TGI = 35.7 µM

---

System: BT-549 breast
Experiment: NCI tumour cell line growth inhibition, 48 h; in the data active = GI50 below about 0.43 µM; inactive = the rest
The reply should name one outcome from active, inactive

O=C(NNS(=O)(=O)c1ccc(F)cc1)c1cccnc1Nc1ccc(Cl)cc1Cl = inactive
O=C(Nc1ccccc1O)c1ccc(CNC(=O)c2sccc2Nc2ccnc(C(F)(F)F)c2)cc1 = inactive
COc1ccc(CC(NC(=O)[C@H](C)NC(=O)CN2CCOCC2)C(=O)N[C@@H](Cc2ccccc2)C(=O)[C@@]2(C)CO2)cc1 (stereo not given in full) = active
COc1cc(NCc2ccccc2O)c2ncccc2c1 = inactive
OCC#Cc1ccccc1C#Cc1ccc(C#Cc2ccccc2C#CCO)s1 = inactive
Cc1nc2cc(Nc3nc(Nc4ccc(F)cc4)nc(N4CCN(C)CC4)n3)ccc2n1Cc1ccccc1 = inactive

Problem: Hi team, can someone confirm the assay call for `CO[C@@]12C[C@H]3[C@@H]([C@@H](O)[C@@H](OC(=O)/C=C/c4ccccc4)[C@@]4(O)C(C)(C)CCC[C@]34C)[C@@H](C)C1=CC(=O)O2` ?
Result: inactive

Problem: Assay outcome for C[C@]12C3CC[C@@]4(CO)C[C@]3(CCC1[C@](C)(C(=O)O)CC[C@@H]2O)CC4=O (stereo not given in full) : what was it?
Result: inactive

Problem: Short answer needed: outcome of this test for COc1cc(C2=NN(c3ccc(S(N)(=O)=O)cc3)C(c3ccc(Cl)cc3)C2)cc(OC)c1OC (stereo not given) ?
Result: inactive

Problem: Assay result, entry `Cc1cccc2c1O/C(=C\c1ccc([N+](=O)[O-])o1)C2=O` — outcome?
Result: inactive

---

Record form. Attribute: TGI. Fill in for each entry.
System: COLO 205 colon
Assay: NCI tumour cell line growth inhibition, 48 h

Nc1ccc(Oc2ccc(C34CC5CC(C3)CC(c3ccc(Oc6ccc(N)cc6)cc3)(C5)C4)cc2)cc1 = > 58.7 µM
O=C(O)C(O)C(O)C(O)C(=O)CO (stereo unspecified) = > 100 µM

Consider the following items and state reported TGI for each.
1. CCCCCCC#CC#Cc1cccc(=O)o1
2. CC(O)C(O)C(O)C(/C=N\Nc1ccccc1)=N/Nc1ccccc1 (stereo unspecified)
3. COC(=O)OCc1ccc2c(c1)C(=O)c1c-2n(CCCBr)c(=O)c2cc([N+](=O)[O-])ccc12
4. CCC1(N=[N+]=[N-])C(=O)c2ccccc2N(c2ccccc2)C1=O (stereo unspecified)

Result:
["20 µM", "27.4 µM", "> 100 µM", "> 100 µM"]

---

What TGI was measured for each of the following?
Tested on: ACHN renal
Assay: NCI tumour cell line growth inhibition, 48 h

Examples with their reported TGI follow.
COC(=O)c1ccccc1NC(=O)C(=O)CC(=O)CC(c1ccccc1)c1c(O)c2ccccc2oc1=O (centres undefined) = > 100 µM
CCN(CC)Cc1cc(Nc2c3ccccc3nc3c4ccccc4n(C)c23)ccc1O = 24 µM
O=C(Nc1ccc(Cl)cc1)c1cc(S(=O)(=O)Nc2nnc(-c3ccccc3)c(-c3ccccc3)n2)c(SCc2ccccc2)cc1Cl = > 61.5 µM

Hi, could you look up TGI for each item in my list?
1. N#CC(C(=N/NC(N)=S)/C(=N/NC(N)=S)C(C#N)c1ccc(Cl)cc1)c1ccc(Cl)cc1 (centres undefined)
2. CCO/C(O)=C(/C(=N)N1CCCC1)C(=O)Nc1ccc(F)cc1
3. c1cc[c]([Sn]([S]c2cccc3cccnc23)([S]c2cccc3cccnc23)[c]2ccccc2)cc1

Result:
1: > 100 µM; 2: > 100 µM; 3: 0.496 µM

// for each molecule in input: emit TGI
1. O=c1c2ccccc2nc(-c2ccccc2)n1O
2. CCOC(=O)/C(C[C@H]1OC(C)(C)O[C@@H]1[C@H]1COC(C)(C)O1)=N/O
3. CCCSc1ccc2[nH]c(N3C(=O)/C(=C/c4cc(OC)c(OC)c(OC)c4)N=C3c3ccccc3)cc2c1

Result:
1. > 100 µM
2. > 100 µM
3. > 37.5 µM
